- Test system: HepG2 cells
- Condition Details: read-out: MMP assays IC50 (µM) HepG2; HepG2 cells; single number from one experiment
Readout Name: IC50 (µM)
Numbers only here, please. The scale is µM.

INPUT: Can you share its IC50? I mean this molecule: `CCCOc1ccc2nc(NC(=O)OC)sc2c1`
OUTPUT: 15.5

INPUT: Try CC(C)(C)NCC(O)CSc1nc(-c2ccc(C(N)=O)s2)cs1.Cl (stereo not shown) [Arotinolol hydrochloride] next.
OUTPUT: 27.5

INPUT: What do you have for `CC(=O)OCCN(CCOC(C)=O)c1ccc(N=Nc2ccc([N+](=O)[O-])cc2C#N)cc1` ?
OUTPUT: 6.31

INPUT: Entry `CCC(=O)OCC(=O)[C@@]1(OC(=O)CC)[C@@H](C)C[C@H]2[C@@H]3CCC4=CC(=O)C=C[C@]4(C)[C@@]3(Cl)[C@@H](O)C[C@@]21C` please
OUTPUT: 21.8

INPUT: Repeat for the following molecule: `Cc1cc2nc3ccc(N(C)C)cc3[s+]c2cc1N.[Cl-]`
OUTPUT: 4.89

INPUT: Another molecule to look at: CCCCCCCC[N+](CCCCCCCC)(CCCCCCCC)CCCCCCCC.[Br-] [tetra-N-Octylammonium bromide]
OUTPUT: 0.13

INPUT: Same read-out for `CCCCCCCCCOC(=O)c1ccc(O)cc1` ?
OUTPUT: 7.94

* * *

- System: isolated rat liver mitochondria
- Protocol Notes: Oxygen consumption, Clark-type oxygen electrode
- Type: biochemical
- Condition Details: 20 µM; glutamate/malate driven state 4 respiration; isolated rat liver mitochondria
Readout Name: I-sub, % of control (O2 consumption rate)

INPUT: Please look up its I-sub, % of control (O2 consumption rate): NNc1nc(-c2ccc([N+](=O)[O-])cc2)cs1 [2-Hydrazino-4-(4-nitrophenyl) thiazole]
OUTPUT: 119 (19.1) % of control

INPUT: Same thing, different compound: `Cc1cc(O)c2c(c1)C(=O)c1cc(O)cc(O)c1C2=O`
OUTPUT: 540 (58.3) % of control

INPUT: Entry to check: `Cc1cc(Cc2cc(C)cc(C(C)(C)C)c2O)c(O)c(C(C)(C)C)c1`
OUTPUT: 116 (18.6) % of control

INPUT: Consider next the compound CCN1C(=CC=Cc2ccc3ccccc3[n+]2CC)C=Cc2ccccc21.[Cl-] [Pinacyanol chloride] in the same way.
OUTPUT: 69 (7.7) % of control

INPUT: // next record `O=C(O)c1cc(O)c2c(c1)C(=O)c1cccc(O)c1C2=O`
OUTPUT: 127 (16.6) % of control

INPUT: Same for O=C(O)c1cccnc1Nc1cccc(C(F)(F)F)c1 [Niflumic acid, reference compound]
OUTPUT: 380 (36.5) % of control

INPUT: Try this compound too: COc1cc2c(cc1OC)-c1cc3ccc(OC)c(OC)c3c[n+]1CC2 [Palmatine chloride hydrate]
OUTPUT: 114 (10.9) % of control

* * *

- Tested on: hNSC
- Protocol Notes: MMP assay in human neural stem cells (hNSC)
- Assay type: cell-based
- Condition Details: Homo sapiens, Neural stem cell; 1 h treatment; fresh re-sourced stocks; mean±SD of three experiments; read-out: hNSC IC50 (MMP)
Readout Name: IC50 (nM)
Unit nM implied. Number only.

INPUT: // map `Cc1cc(Cc2cc(C)cc(C(C)(C)C)c2O)c(O)c(C(C)(C)C)c1` to recorded IC50 (system: hNSC)
OUTPUT: 880

INPUT: `Nc1ccc2c(c1)C(=O)c1ccccc1C2=O` , same question.
OUTPUT: 1800
